Provenance of the data: paper PMC12147761

TARGET UNDER TEST: CDK2/CycA2 (Homo sapiens, UniProt P24941)
Construct: ICE Bioscience Inc. (assay service)
ASSAY REMARKS: CDK family panel, ADP-Glo
Format: biochemical
ASSAY ENDPOINT: IC50

Request the reported IC50 associated with "C=CC(=O)Nc1cc(N(C(=O)NCc2ccccc2)[C@H]2CC[C@H](Nc3ccc(C#N)cn3)CC2)ccc1N1CCC(N(C)C)CC1"
> 10000 nM

----------
System: VCaP prostate cancer cells
ASSAY REMARKS: Cell proliferation assay (CellTiter-Glo), VCaP
Format: cell-based, human
TEST PARAMETERS: cell growth inhibition, 5 days, CellTiter-Glo; listed as 14k (YJZ5118)
ASSAY ENDPOINT: IC50 (nM)
# number only, unit nM dropped from output

Request the reported IC50 associated with "C=CC(=O)Nc1cc(N(C(=O)NCc2ccccc2)[C@H]2CC[C@H](Nc3ccc(C#N)cn3)CC2)ccc1N1CCC(N(C)C)CC1"
23.7
